# TEST_TARGET: cloned human 5-HT1A receptors (Homo sapiens, UniProt P08908)
# Construct: expressed in transfected cells; host or cells: HeLa cells (HA7)
# Sequence (P08908 whole entry): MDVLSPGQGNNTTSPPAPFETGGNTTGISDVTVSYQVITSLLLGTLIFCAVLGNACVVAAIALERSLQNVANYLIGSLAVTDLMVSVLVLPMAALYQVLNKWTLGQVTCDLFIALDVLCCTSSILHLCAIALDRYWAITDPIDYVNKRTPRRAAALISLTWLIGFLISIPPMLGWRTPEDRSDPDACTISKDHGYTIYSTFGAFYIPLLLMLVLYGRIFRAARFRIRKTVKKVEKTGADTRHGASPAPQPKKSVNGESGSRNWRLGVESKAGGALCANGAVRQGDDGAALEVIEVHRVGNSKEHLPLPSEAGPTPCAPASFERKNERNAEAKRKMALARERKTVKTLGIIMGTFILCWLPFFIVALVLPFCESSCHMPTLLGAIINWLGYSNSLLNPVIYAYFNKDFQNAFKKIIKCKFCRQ
# ASSAY_TEXT: Inhibition of 3H-5-CT binding to human 5-HT1A receptors
# MEASUREMENT_CONTEXT: at 100 nM; cloned human 5-HT1A receptors in HeLa cells (HA7)
# Description: The affinity of the compounds of the invention to 5-HT1A receptors was determined by measuring the inhibition of binding of a radioactive ligand at 5-HT1A receptors as described in the following test: […] By this method the inhibition by drugs of the binding of the 5-HT1A agonist ^3H-5-carboxamido tryptamine (3H-5-CT) to cloned human 5-HT1A receptors stably expressed in transfected HeLa cells (HA7) (Fargin, A. et al, J. Biol. Chem., 1989, 264, 14848) is determined in vitro. […]
QUANTITY_NAME: inhibition at 0.1 µM (%)

>  <SMILES>
COc1ccc(OC)c(SCCCN2CCN(c3cccc4c3OCCO4)CC2)c1

>  <REPORTED_MEASUREMENT>
91

$$$$
>  <SMILES>
C=CCc1ccccc1OCCCCN1CCN(c2cccc3c2OCCO3)CC1

>  <REPORTED_MEASUREMENT>
92

$$$$
>  <SMILES>
C=CCc1cccc(Cl)c1OCCN1CCN(c2cccc3c2OCCO3)CC1

>  <REPORTED_MEASUREMENT>
90

$$$$
>  <SMILES>
Clc1ccc(Cl)c(SCCCCN2CCN(c3cccc4c3OCCO4)CC2)c1

>  <REPORTED_MEASUREMENT>
84

$$$$
>  <SMILES>
Clc1cccc(SCCCN2CCN(c3cccc4c3OCCO4)CC2)c1

>  <REPORTED_MEASUREMENT>
100

$$$$
>  <SMILES>
Cc1ccc(SCCCN2CCN(c3cccc4c3OCCO4)CC2)c(C)c1

>  <REPORTED_MEASUREMENT>
99

$$$$
>  <SMILES>
FC(F)(F)c1ccccc1SCCCN1CCN(c2cccc3c2OCCO3)CC1

>  <REPORTED_MEASUREMENT>
93

$$$$
